Ref: the supplement of paper PMC5998384

System: HeLa Kyoto
experimentNotes: thermal stability score vs G1/S (z-score of summed log2 fold changes over temperatures); higher = more thermally stable than in G1/S
conditionParameters: cell cycle stage: mitosis
Recorded thermal stability score by entry

biopolymerSequence	subjectOfTest	thermal stability score
MIALFNKLLDWFKALFWKEEMELTLVGLQYSGKTTFVNVIASGQFNEDMIPTVGFNMRKITKGNVTIKLWDIGGQPRFRSMWERYCRGVSAIVYMVDAADQEKIEASKNELHNLLDKPQLQGIPVLVLGNKRDLPGALDEKELIEKMNLSAIQDREICCYSISCKEKDNIDITLQWLIQHSKSRRS [ARL8A]	HeLa Kyoto	-1.71
MSGGRAPAVLLGGVASLLLSFVWMPALLPVASRLLLLPRVLLTMASGSPPTQPSPASDSGSGYVPGSVSAAFVTCPNEKVAKEIARAVVEKRLAACVNLIPQITSIYEWKGKIEEDSEVLMMIKTQSSLVPALTDFVRSVHPYEVAEVIALPVEQGNFPYLQWVRQVTESVSDSITVLP [CUTA]	HeLa Kyoto	-1.38

* * *

Test system: HeLa Kyoto
experimentNotes: melting temperature (median over replicates), in situ; higher = more thermally stable
conditionParameters: cell cycle stage: mitosis
Listing: melting temperature of selected sequences

biopolymerSequence	melting temperature / °C
MIALFNKLLDWFKALFWKEEMELTLVGLQYSGKTTFVNVIASGQFNEDMIPTVGFNMRKITKGNVTIKLWDIGGQPRFRSMWERYCRGVSAIVYMVDAADQEKIEASKNELHNLLDKPQLQGIPVLVLGNKRDLPGALDEKELIEKMNLSAIQDREICCYSISCKEKDNIDITLQWLIQHSKSRRS [ARL8A]	54.4
MSQAEFEKAAEEVRHLKTKPSDEEMLFIYGHYKQATVGDINTERPGMLDFTGKAKWDAWNELKGTSKEDAMKAYINKVEELKKKYGI [DBI]	53.8
MKFRAKIVDGACLNHFTRISNMIAKLAKTCTLRISPDKLNFILCDKLANGGVSMWCELEQENFFNEFQMEGVSAENNEIYLELTSENLSRALKTAQNARALKIKLTNKHFPCLTVSVELLSMSSSSRIVTHDIPIKVIPRKLWKDLQEPVVPDPDVSIYLPVLKTMKSVVEKMKNISNHLVIEANLDGELNLKIETELVCVTTHFKDLGNPPLASESTHEDRNVEHMAEVHIDIRKLLQFLAGQQVNPTKALCNIVNNKMVHFDLLHEDVSLQYFIPALS [HUS1]	51.9
MLYLIGLGLGDAKDITVKGLEVVRRCSRVYLEAYTSVLTVGKEALEEFYGRKLVVADREEVEQEADNILKDADISDVAFLVVGDPFGATTHSDLVLRATKLGIPYRVIHNASIMNAVGCCGLQLYKFGETVSIVFWTDTWRPESFFDKVKKNRQNGMHTLCLLDIKVKEQSLENLIKGRKIYEPPRYMSVNQAAQQLLEIVQNQRIRGEEPAVTEETLCVGLARVGADDQKIAAGTLRQMCTVDLGEPLHSLIITGGSIHPMEMEMLSLFSIPENSSESQSINGL [DPH5]	55.3

* * *

System: HeLa Kyoto
experimentNotes: melting temperature (median over replicates), in situ; higher = more thermally stable
conditionParameters: cell cycle stage: mitosis

substance	melting temperature
ARHGAP21	50.2 °C
MAELGLNEHHQNEVINYMRFARSKRGLRLKTVDSCFQDLKESRLVEDTFTIDEVSEVLNGLQAVVHSEVESELINTAYTNVLLLRQLFAQAEKWYLKLQTDISELENRELLEQVAEFEKAEITSSNKKPILDVTKPKLAPLNEGGTAELLNKEILRLQEENEKLKSRLKTIEIQATNALDEKSKLEKALQDLQLDQGNQKDFIKAQDLSNLENTVAALKSEFQKTLNDKTENQKSLEENLATAKHDLLRVQEQLHMAEKELEKKFQQTAAYRNMKEILTKKNDQIKDLRKRLAQYEPED [LZTFL1]	52.7 °C
MSDKPDMAEIEKFDKSKLKKTETQEKNPLPSKETIEQEKQAGES [TMSB4X]	50.4 °C
MRKMLAAVSRVLSGASQKPASRVLVASRNFANDATFEIKKCDLHRLEEGPPVTTVLTREDGLKYYRMMQTVRRMELKADQLYKQKIIRGFCHLCDGQEACCVGLEAGINPTDHLITAYRAHGFTFTRGLSVREILAELTGRKGGCAKGKGGSMHMYAKNFYGGNGIVGAQVPLGAGIALACKYNGKDEVCLTLYGDGAANQGQIFEAYNMAALWKLPCIFICENNRYGMGTSVERAAASTDYYKRGDFIPGLRVDGMDILCVREATRFAAAYCRSGKGPILMELQTYRYHGHSMSDPGVSYRTREEIQEVRSKSDPIMLLKDRMVNSNLASVEELKEIDVEVRKEIEDAAQFATADPEPPLEELGYHIYSSDPPFEVRGANQWIKFKSVS [PDHA1]	51.5 °C
MDDKAFTKELDQWVEQLNECKQLNENQVRTLCEKAKEILTKESNVQEVRCPVTVCGDVHGQFHDLMELFRIGGKSPDTNYLFMGDYVDRGYYSVETVTLLVALKVRYPERITILRGNHESRQITQVYGFYDECLRKYGNANVWKYFTDLFDYLPLTALVDGQIFCLHGGLSPSIDTLDHIRALDRLQEVPHEGPMCDLLWSDPDDRGGWGISPRGAGYTFGQDISETFNHANGLTLVSRAHQLVMEGYNWCHDRNVVTIFSAPNYCYRCGNQAAIMELDDTLKYSFLQFDPAPRRGEPHVTRRTPDYFL [PPP2CB]	54.8 °C
MSSPSPGKRRMDTDVVKLIESKHEVTILGGLNEFVVKFYGPQGTPYEGGVWKVRVDLPDKYPFKSPSIGFMNKIFHPNIDEASGTVCLDVINQTWTALYDLTNIFESFLPQLLAYPNPIDPLNGDAAAMYLHRPEEYKQKIKEYIQKYATEEALKEQEEGTGDSSSESSMSDFSEDEAQDMEL [UBE2H]	52.4 °C
MAAGTAAALAFLSQESRTRAGGVGGLRVPAPVTMDSFFFGCELSGHTRSFTFKVEEEDDAEHVLALTMLCLTEGAKDECNVVEVVARNHDHQEIAVPVANLKLSCQPMLSLDDFQLQPPVTFRLKSGSGPVRITGRHQIVTMSNDVSEEESEEEEEDSDEEEVELCPILPAKKQGGRP [NPM3]	53 °C
MDKNELVQKAKLAEQAERYDDMAACMKSVTEQGAELSNEERNLLSVAYKNVVGARRSSWRVVSSIEQKTEGAEKKQQMAREYREKIETELRDICNDVLSLLEKFLIPNASQAESKVFYLKMKGDYYRYLAEVAAGDDKKGIVDQSQQAYQEAFEISKKEMQPTHPIRLGLALNFSVFYYEILNSPEKACSLAKTAFDEAIAELDTLSEESYKDSTLIMQLLRDNLTLWTSDTQGDEAEAGEGGEN [YWHAZ]	54.8 °C
MFPFYSCWRTGLLLLLLAVAVRESWQTEEKTCDLVGEKGKESEKELALVKRLKPLFNKSFESTVGQGSDTYIYIFRVCREAGNHTSGAGLVQINKSNGKETVVGRLNETHIFNGSNWIMLIYKGGDEYDNHCGKEQRRAVVMISCNRHTLADNFNPVSEERGKVQDCFYLFEMDSSLACSPEISHLSVGSILLVTFASLVAVYVVGGFLYQRLVVGAKGMEQFPHLAFWQDLGNLVADGCDFVCRSKPRNVPAAYRGVGDDQLGEESEERDDHLLPM [M6PR]	59.1 °C
MKLGRAVLGLLLLAPSVVQAVEPISLGLALAGVLTGYIYPRLYCLFAECCGQKRSLSREALQKDLDDNLFGQHLAKKIILNAVFGFINNPKPKKPLTLSLHGWTGTGKNFVSKIIAENIYEGGLNSDYVHLFVATLHFPHASNITLYKDQLQLWIRGNVSACARSIFIFDEMDKMHAGLIDAIKPFLDYYDLVDGVSYQKAMFIFLSNAGAERITDVALDFWRSGKQREDIKLKDIEHALSVSVFNNKNSGFWHSSLIDRNLIDYFVPFLPLEYKHLKMCIRVEMQSRGYEIDEDIVSRVAEEMTFFPKEERVFSDKGCKTVFTKLDYYYDD [TOR1A]	53.5 °C
MSKAHPPELKKFTDKKFSLKLNGGRHVQGILRGFDPFMNLVIDECVEMATSGQQKNIGMVEIRGNSIIMLEALERV [SNRPGP15]	54 °C
MYTFVVRDENSSVYAEVSRLLLATGHWKRLRRDNPRFNLMLGERNRLPFGRLGHEPGLVQLVNYYRGADKLCRKASLVKLIKTSPELAESCTWFPESYVIYPTNLKTPVAPAQNGIQPPISNSRTDEREFFLASYNRKKEDGEGNVWIAKSSAGAKGEGILISSEASELLDFIDNQGQVHVIQKYLEHPLLLEPGHRKFDIRSWVLVDHQYNIYLYREGVLRTASEPYHVDNFQDKTCHLTNHCIQKEYSKNYGKYEEGNEMFFKEFNQYLTSALNITLESSILLQIKHIIRNCLLSVEPAISTKHLPYQSFQLFGFDFMVDEELKVWLIEVNGAPACAQKLYAELCQGIVDIAISSVFPPPDVEQPQTQPAAFIKL [TTL]	53.4 °C
